- Target: UniProt:P11387
- Sequence (P11387 whole entry): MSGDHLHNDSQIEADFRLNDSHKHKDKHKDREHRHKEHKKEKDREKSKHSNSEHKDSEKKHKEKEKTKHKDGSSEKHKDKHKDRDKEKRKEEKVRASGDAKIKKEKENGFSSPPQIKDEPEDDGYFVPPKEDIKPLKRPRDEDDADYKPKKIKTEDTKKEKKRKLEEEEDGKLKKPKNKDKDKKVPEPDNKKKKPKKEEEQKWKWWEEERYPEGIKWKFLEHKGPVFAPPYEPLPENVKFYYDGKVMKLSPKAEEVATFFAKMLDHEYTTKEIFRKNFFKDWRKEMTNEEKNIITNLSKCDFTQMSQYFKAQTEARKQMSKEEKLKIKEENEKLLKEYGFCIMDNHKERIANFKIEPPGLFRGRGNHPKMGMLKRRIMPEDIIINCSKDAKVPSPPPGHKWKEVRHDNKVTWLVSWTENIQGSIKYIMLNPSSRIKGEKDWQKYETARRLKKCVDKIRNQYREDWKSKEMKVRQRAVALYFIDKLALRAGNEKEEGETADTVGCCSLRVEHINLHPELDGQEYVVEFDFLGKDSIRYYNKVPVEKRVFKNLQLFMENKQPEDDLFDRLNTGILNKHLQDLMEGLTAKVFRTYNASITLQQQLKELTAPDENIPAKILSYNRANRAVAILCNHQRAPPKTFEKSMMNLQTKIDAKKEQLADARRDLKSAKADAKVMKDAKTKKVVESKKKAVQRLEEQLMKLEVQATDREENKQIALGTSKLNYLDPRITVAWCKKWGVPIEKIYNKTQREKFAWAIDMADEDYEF
- Experiment summary: Inhibition of recombinant human topoisomerase-1 assessed as decrease in relaxation of supercoiled pBR322 plasmid DNA at 100 uM after 30 mins by ethidium bromide staining based agarose gel electrophoresis relative to camptothecin
Property name: fold change (FC)

What does the record list as fold change (FC) for `Oc1ccc(-c2cc(-c3ccccc3Cl)cc(-c3ccc(O)cc3)n2)cc1` ? 1.06

Next molecule up: `Oc1cccc(-c2cc(-c3ccc(Cl)cc3)cc(-c3ccccc3O)n2)c1` 1.11

Can you handle `Oc1cccc(-c2cc(-c3ccccc3Cl)cc(-c3cccc(O)c3)n2)c1` next? 0.7

One more molecule: `Oc1ccc(-c2cc(-c3ccc(Cl)cc3)cc(-c3ccc(O)cc3)n2)cc1` 1.31

Same again, this time with `Oc1cccc(-c2cc(-c3ccc(Cl)cc3)cc(-c3cccc(O)c3)n2)c1` 1.08

Again, but for `Oc1ccc(-c2cc(-c3ccc(Cl)cc3)cc(-c3cccc(O)c3)n2)cc1` 1.12

Also, `Oc1ccc(-c2cc(-c3cccc(Cl)c3)cc(-c3ccc(O)cc3)n2)cc1` please. 1.26

Another molecule: `Oc1ccccc1-c1cc(-c2ccccc2Cl)cc(-c2ccccc2O)n1` 0.11

Please answer likewise for `Oc1ccc(-c2cc(-c3cccc(Cl)c3)cc(-c3cccc(O)c3)n2)cc1` 0.99

Lookup `Oc1cccc(-c2cc(-c3cccc(Cl)c3)cc(-c3cccc(O)c3)n2)c1` 0.97

Entry to check: `Oc1cccc(-c2cc(-c3ccccc3Cl)cc(-c3ccccc3O)n2)c1` < 0.1

Origin of measurements: ChEMBL document CHEMBL4033628
